Just for reference, patent US20210253718A1 is where these values come from.

Target: FZD1 cysteine-rich domain (CRD), MYC-tagged and GPI-anchored on CHO cells (human)
Assay: flow cytometry, CHO-CRD cells;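 note: flow cytometry of Fab binding to CHO cells overexpressing a Frizzled CRD, with binding defined as median fluorescence over twice that of CHO cells lacking any Frizzled CRD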
# median fluorescence listing for each entry below

Fab-2922 (Fab, V domains shown, Fab; also called Fv-2922) VH: EVQLVESGGGLVQPGGSLRLSCAASGFNIYSSYMHWVRQAPGKGLEWVASISPYSGYTSYADSVKGRFTISADTSKNTAYLQMNSLRAEDTAVYYCARTVRGSKKPYFSGWAMDYWGQGTLVTVSS VL: DIQMTQSPSSLSASVGDRVTITCRASQSVSSAVAWYQQKPGKAPKLLIYSASSLYSGVPSRFSGSRSGTDFTLTISSLQPEDFATYYCQQSFVYPYLITFGQGTKVEIK :: 4.83

Tell me the measured median fluorescence of Fab-2936 (Fab, V domains shown, Fab; also called Fv-2936) VH: EVQLVESGGGLVQPGGSLRLSCAASGFNISYYYMHWVRQAPGKGLEWVASIYSSSGSTSYADSVKGRFTISADTSKNTAYLQMNSLRAEDTAVYYCARAAMDYWGQGTLVTVSS VL: DIQMTQSPSSLSASVGDRVTITCRASQSVSSAVAWYQQKPGKAPKLLIYSASSLYSGVPSRFSGSRSGTDFTLTISSLQPEDFATYYCQQWYAASLITFGQGTKVEIK , please.
3.05

One more binder: Fab-2930 (Fab, V domains shown, Fab; also called Fv-2930) VH: EVQLVESGGGLVQPGGSLRLSCAASGFNLSYYYIHWVRQAPGKGLEWVASIYPYSGSTSYADSVKGRFTISADTSKNTAYLQMNSLRAEDTAVYYCARGALDYWGQGTLVTVSS VL: DIQMTQSPSSLSASVGDRVTITCRASQSVSSAVAWYQQKPGKAPKLLIYSASSLYSGVPSRFSGSRSGTDFTLTISSLQPEDFATYYCQQWYGPYLITFGQGTKVEIK
30.1

Similarly, Fab-2921 (Fab, V domains shown, Fab) VH: EVQLVESGGGLVQPGGSLRLSCAASGFNISYYYIHWVRQAPGKGLEWVASIYPSSGSTSYADSVKGRFTISADTSKNTAYLQMNSLRAEDTAVYYCARGAMDYWGQGTLVTVSS VL: DIQMTQSPSSLSASVGDRVTITCRASQSVSSAVAWYQQKPGKAPKLLIYSASSLYSGVPSRFSGSRSGTDFTLTISSLQPEDFATYYCQQWYAGSLITFGQGTKVEIK ?
4.53

Repeat for the following binder: Fab-2915 (Fab, V domains shown, Fab; also called Fv-2915) VH: EVQLVESGGGLVQPGGSLRLSCAASGFNIYYYSMHWVRQAPGKGLEWVASIYSSYGYTSYADSVKGRFTISADTSKNTAYLQMNSLRAEDTAVYYCARGYHYYPYYSGLDYWGQGTLVTVSS VL: DIQMTQSPSSLSASVGDRVTITCRASQSVSSAVAWYQQKPGKAPKLLIYSASSLYSGVPSRFSGSRSGTDFTLTISSLQPEDFATYYCQQAYYHSLITFGQGTKVEIK
36.9

Entry Fab-2912 (Fab, V domains shown, Fab; also called Fv-2912) VH: EVQLVESGGGLVQPGGSLRLSCAASGFNISYSYIHWVRQAPGKGLEWVASISSSSGYTSYADSVKGRFTISADTSKNTAYLQMNSLRAEDTAVYYCARTVRGSKKPYFSGWAMDYWGQGTLVTVSS VL: DIQMTQSPSSLSASVGDRVTITCRASQSVSSAVAWYQQKPGKAPKLLIYSASSLYSGVPSRFSGSRSGTDFTLTISSLQPEDFATYYCQQFYFPYLITFGQGTKVEIK please
41

And what about the binder Fab-2926 (Fab, V domains shown, Fab; also called Fv-2926) VH: EVQLVESGGGLVQPGGSLRLSCAASGFNIYSSYMHWVRQAPGKGLEWVASIYPSSSSTSYADSVKGRFTISADTSKNTAYLQMNSLRAEDTAVYYCARGGLDYWGQGTLVTVSS VL: DIQMTQSPSSLSASVGDRVTITCRASQSVSSAVAWYQQKPGKAPKLLIYSASSLYSGVPSRFSGSRSGTDFTLTISSLQPEDFATYYCQQWYHGGSLFTFGQGTKVEIK ?
7.17
